Hey, just so you know, these numbers are from patent US20260374731A1.

- Tested on: Pseudomonas aeruginosa (PA) ATCC 27853
- PROTOCOL_DETAILS: Susceptibility test (MIC), broth dilution, Pseudomonas aeruginosa
- Type: cell-based
- SETTINGS: ATCC27853, Pseudomonas aeruginosa ATCC 27853, 14-20 hour incubation, read-out: Minimum Inhibitory Concentration
TEST_READOUT: MIC
Write down the value, and be sure its unit follows.

Sample records with MIC:
MOLECULE	MIC
CCC(=N)N(CCCOc1cc(/C=C/c2ccc(/C=C/c3cc(OCCCN(C(=N)CC)C4CC4)cc(OCCCN(C(=N)CC)C4CC4)c3)cc2)cc(OCCCN(C(=N)CC)C2CC2)c1)C1CC1 [Formula E]	16 µg/mL
C/N=C(\C)NCCCOc1cc(/C=C/c2ccc(/C=C/c3cc(OCCCN/C(C)=N/C)cc(OCCCN/C(C)=N/C)c3)cc2)cc(OCCCN/C(C)=N/C)c1 [Formula H]	32 µg/mL
N=C(NCCCOc1cc(/C=C/c2ccc(/C=C/c3cc(OCCCNC(=N)C4CC4)cc(OCCCNC(=N)C4CC4)c3)cc2)cc(OCCCNC(=N)C2CC2)c1)C1CC1 [Formula A]	2 µg/mL
C(=C\c1cc(OCCCNC2=NCCC2)cc(OCCCNC2=NCCC2)c1)/c1ccc(/C=C/c2cc(OCCCNC3=NCCC3)cc(OCCCNC3=NCCC3)c2)cc1 [Formula J]	16 µg/mL
CCCN(CCCOc1cc(/C=C/c2ccc(/C=C/c3cc(OCCCN(CCC)C(=N)C4CC4)cc(OCCCN(CCC)C(=N)C4CC4)c3)cc2)cc(OCCCN(CCC)C(=N)C2CC2)c1)C(=N)C1CC1 [Formula C]	32 µg/mL

What measured MIC goes with CCCN(CCCOc1cc(/C=C/c2ccc(/C=C/c3cc(OCCCN(CCC)C(=N)CC)cc(OCCCN(CCC)C(=N)CC)c3)cc2)cc(OCCCN(CCC)C(=N)CC)c1)C(=N)CC [Formula F] ?
16 µg/mL

What measured MIC goes with CCC(=N)N(C)CCCOc1cc(/C=C/c2ccc(/C=C/c3cc(OCCCN(C)C(=N)CC)cc(OCCCN(C)C(=N)CC)c3)cc2)cc(OCCCN(C)C(=N)CC)c1 [Formula D] ?
8 µg/mL

What measured MIC goes with N=C(CC1CC1)NCCCOc1cc(/C=C/c2ccc(/C=C/c3cc(OCCCNC(=N)CC4CC4)cc(OCCCNC(=N)CC4CC4)c3)cc2)cc(OCCCNC(=N)CC2CC2)c1 [Formula G] ?
8 µg/mL

What measured MIC goes with C/C(=N\C1CC1)NCCCOc1cc(/C=C/c2ccc(/C=C/c3cc(OCCCN/C(C)=N/C4CC4)cc(OCCCN/C(C)=N/C4CC4)c3)cc2)cc(OCCCN/C(C)=N/C2CC2)c1 [Formula K] ?
32 µg/mL

What measured MIC goes with CN(CCCOc1cc(/C=C/c2ccc(/C=C/c3cc(OCCCN(C)C(=N)C4CC4)cc(OCCCN(C)C(=N)C4CC4)c3)cc2)cc(OCCCN(C)C(=N)C2CC2)c1)C(=N)C1CC1 [Formula B] ?
8 µg/mL

---

- PROTOCOL_DETAILS: Cytotoxicity, MTT viability assay, HepG2
- Format: cell-based
- SETTINGS: human, hepg2 cells; HepG2, MTT, 24 h incubation, 8 to 1024 μg/mL; lowest concentration with viability less than 50%; read-out: Cytotoxicity (IC50)
TEST_READOUT: CC50 at 24 h (µg/mL)
Please reply with the bare figure in µg/mL and do not write the unit itself.

Sample records with CC50 at 24 h:
SMILES_STR	CC50 at 24 h (µg/mL)
CCC(=N)N(CCCOc1cc(/C=C/c2ccc(/C=C/c3cc(OCCCN(C(=N)CC)C4CC4)cc(OCCCN(C(=N)CC)C4CC4)c3)cc2)cc(OCCCN(C(=N)CC)C2CC2)c1)C1CC1	128
CCCN(CCCOc1cc(/C=C/c2ccc(/C=C/c3cc(OCCCN(CCC)C(=N)C4CC4)cc(OCCCN(CCC)C(=N)C4CC4)c3)cc2)cc(OCCCN(CCC)C(=N)C2CC2)c1)C(=N)C1CC1	16
C(=C\c1cc(OCCCNC2=NCCC2)cc(OCCCNC2=NCCC2)c1)/c1ccc(/C=C/c2cc(OCCCNC3=NCCC3)cc(OCCCNC3=NCCC3)c2)cc1	1020

What measured CC50 at 24 h goes with CN(CCCOc1cc(/C=C/c2ccc(/C=C/c3cc(OCCCN(C)C(=N)C4CC4)cc(OCCCN(C)C(=N)C4CC4)c3)cc2)cc(OCCCN(C)C(=N)C2CC2)c1)C(=N)C1CC1 ?
1020

What measured CC50 at 24 h goes with CCCN(CCCOc1cc(/C=C/c2ccc(/C=C/c3cc(OCCCN(CCC)C(=N)CC)cc(OCCCN(CCC)C(=N)CC)c3)cc2)cc(OCCCN(CCC)C(=N)CC)c1)C(=N)CC ?
32

What measured CC50 at 24 h goes with N=C(CC1CC1)NCCCOc1cc(/C=C/c2ccc(/C=C/c3cc(OCCCNC(=N)CC4CC4)cc(OCCCNC(=N)CC4CC4)c3)cc2)cc(OCCCNC(=N)CC2CC2)c1 ?
256
